Below: molecules with Ki recorded for UniProtKB P35968 in separate published works.
Sequence (P35968 whole entry): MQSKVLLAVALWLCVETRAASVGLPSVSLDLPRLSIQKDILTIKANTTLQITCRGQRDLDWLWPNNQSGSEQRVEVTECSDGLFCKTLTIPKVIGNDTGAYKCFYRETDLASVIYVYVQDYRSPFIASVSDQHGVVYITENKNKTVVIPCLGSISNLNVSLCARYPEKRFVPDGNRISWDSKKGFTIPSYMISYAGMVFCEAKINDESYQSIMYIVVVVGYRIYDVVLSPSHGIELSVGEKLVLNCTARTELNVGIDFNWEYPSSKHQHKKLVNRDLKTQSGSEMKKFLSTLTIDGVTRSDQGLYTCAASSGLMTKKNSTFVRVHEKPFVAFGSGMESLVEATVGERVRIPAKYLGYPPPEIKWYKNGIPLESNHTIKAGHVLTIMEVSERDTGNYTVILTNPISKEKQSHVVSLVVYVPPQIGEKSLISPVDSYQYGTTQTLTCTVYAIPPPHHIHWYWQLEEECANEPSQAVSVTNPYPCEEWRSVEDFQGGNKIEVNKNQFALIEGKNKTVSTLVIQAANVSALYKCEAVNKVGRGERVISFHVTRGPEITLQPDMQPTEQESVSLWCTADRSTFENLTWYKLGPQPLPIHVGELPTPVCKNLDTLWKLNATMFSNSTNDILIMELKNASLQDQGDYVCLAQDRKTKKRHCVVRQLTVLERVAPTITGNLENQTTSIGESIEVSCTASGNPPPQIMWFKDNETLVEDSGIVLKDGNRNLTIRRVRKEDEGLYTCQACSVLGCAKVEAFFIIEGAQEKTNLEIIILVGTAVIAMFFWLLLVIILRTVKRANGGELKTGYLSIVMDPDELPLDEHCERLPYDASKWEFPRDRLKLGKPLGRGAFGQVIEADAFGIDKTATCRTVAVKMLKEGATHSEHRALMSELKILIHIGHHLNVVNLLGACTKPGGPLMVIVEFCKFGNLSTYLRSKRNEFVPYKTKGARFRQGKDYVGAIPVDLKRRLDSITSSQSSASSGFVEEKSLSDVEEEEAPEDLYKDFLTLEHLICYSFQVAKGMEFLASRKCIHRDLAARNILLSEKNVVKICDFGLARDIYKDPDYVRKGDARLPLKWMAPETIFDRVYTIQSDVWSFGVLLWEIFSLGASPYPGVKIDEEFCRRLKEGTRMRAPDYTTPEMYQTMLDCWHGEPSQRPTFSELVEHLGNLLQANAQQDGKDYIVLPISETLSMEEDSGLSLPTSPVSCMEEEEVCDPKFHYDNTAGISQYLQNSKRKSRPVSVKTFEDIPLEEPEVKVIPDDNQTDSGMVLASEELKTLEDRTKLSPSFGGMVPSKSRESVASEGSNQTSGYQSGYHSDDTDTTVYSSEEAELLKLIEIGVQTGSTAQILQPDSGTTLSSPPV
measuredEndpoint: Ki (nM)

>  <smi>
COc1ccc2c(Oc3cnc(NC(=O)c4c(C)n(C)n(-c5ccccc5)c4=O)nc3)ccnc2c1

>  <Ki (nM)>
1630

$$$$
>  <smi>
c1ccc2c(CNc3ccnc4oc5ccccc5c34)cccc2c1

>  <Ki (nM)>
300

$$$$

(P) COc1cc2c(Oc3ccc(-c4cnc(Cc5ccccc5)n(C)c4=O)cc3F)ccnc2cc1OCCCN1CCOCC1
(Q) COc1ccc(C2=NNC(=O)/C2=N\Nc2cccnc2)cc1
(R) Cn1cnc(NCc2ccncc2)c1C(=O)Nc1ccc(C(C)(C)C)cc1
(S) COc1ccc2c(Oc3ccc(NC(=O)c4c([C@@H]5CCCN5)n(C)n(-c5ccccc5)c4=O)cc3F)ccnc2c1
List from greatest to least Ki. # respond with the labels, arranged in the requested order Q, S, P, R

(I) COc1ccc2c(Oc3ccc(NC(=O)c4c(-c5cnccn5)n(C)n(-c5ccccc5)c4=O)nc3)ccnc2c1
(II) Nc1n[nH]c2ccc(-c3cc(Cc4ccccc4)no3)cc12
(III) COc1cc2nccc(Oc3ccc(NC(=S)NC(=O)Cc4ccccc4)cc3F)c2cc1OC
Please list these in order of increasing Ki. Thank you! Arrange the labels as the request states and list them. III, II, I
(III: 103 nM, II: 3290 nM, I: 4730 nM)
